Data origin: patent US20230405001A1

Test: Plasma kinetics in minipigs over 6 months after single subcutaneous dosing, sequential, admixed or control (Example 2)
Assay type: in vivo
Conditions: minipig, sc, 1830 mg, single s.c. about 1800 mg/6 mL, N=3, read-out: Mean AUC0-1 months
reported-property: AUC(0-t)

*Q* Answer with reported AUC(0-t) of "Cc1cc(/C=C/C#N)cc(C)c1Nc1ccnc(Nc2ccc(C#N)cc2)n1"
*A* 22 µg·h/mL

====

Test: Plasma kinetics in minipigs over 6 months after single subcutaneous dosing, sequential, admixed or control (Example 2)
Format: in vivo
Conditions: minipig, sc, 1830 mg, control group C, single animal, at 7 hours post-administration, read-out: Cmax of the excluded outlier minipig
reported-property: Cmax (ng/mL)
Give bare numbers, in ng/mL.

*Q* Tell me its Cmax given "Cc1cc(/C=C/C#N)cc(C)c1Nc1ccnc(Nc2ccc(C#N)cc2)n1" as the entry.
*A* 563

====

Assay: Plasma kinetics in minipigs after single subcutaneous dosing, rilpivirine suspension with or without rHuPH20 (Example 1)
Type: in vivo
Settings: plasma, sc; minipig, single s.c. dose in the loin, 900 mg/3 mL rilpivirine suspension, N=3, mean ± SD
reported-property: Cmax (µg/mL)
Answers are plain numbers, in µg/mL.

*Q* Indicate the recorded Cmax value for this compound: Cc1cc(/C=C/C#N)cc(C)c1Nc1ccnc(Nc2ccc(C#N)cc2)n1 [Rilpivirine]
*A* 0.0285

====

Assay: Plasma kinetics in minipigs over 6 months after single subcutaneous dosing, sequential, admixed or control (Example 2)
Format: in vivo
Settings: minipig, sc, 1830 mg, single s.c. about 1800 mg/6 mL, N=3, read-out: Mean AUC0-6 months
reported-property: AUC(0-t) (ng·h/mL)
Answers are plain numbers, in ng·h/mL.

*Q* Tell me its AUC(0-t) given "Cc1cc(/C=C/C#N)cc(C)c1Nc1ccnc(Nc2ccc(C#N)cc2)n1" as the entry.
*A* 78300

====

Test: Plasma kinetics in minipigs over 6 months after single subcutaneous dosing, sequential, admixed or control (Example 2)
Format: in vivo
Conditions: minipig, sc, 1830 mg, single s.c. about 1800 mg/6 mL rilpivirine nanosuspension, N=3, control value excludes an outlier minipig, read-out: Mean Cmax
reported-property: Cmax (µg/mL)
One number for each entry, in µg/mL.

*Q* Please give measured Cmax of the following entry: "Cc1cc(/C=C/C#N)cc(C)c1Nc1ccnc(Nc2ccc(C#N)cc2)n1"
*A* 0.049
